For each entry below, report its T/C value.
Tested on: BDF1 mice, Adenocarcinoma 755 s.c., tumor weight T/C
Test: NCI In Vivo Anticancer Drug Screen. Data for tumor model Adenocarcinoma 755 (subcutaneous) in B6D2F1 (BDF1) mice
Details: endpoint: mean tumor weight; dose: 15.0 mg/kg/injection; schedule: Q01DX011 (ip); vehicle: methylcellulose (MC); higher = larger tumour

Some solved cases for reference:
- molecule: "Nc1nc(I)c2[nH]cnc2n1"
  T/C: "52 % of control"
- molecule: "CSc1ncc(Br)c(Nc2ccc(Cl)c(Cl)c2)n1"
  T/C: "57 % of control"
- molecule: "Nc1nc(Cl)cc(Nc2ccccc2Cl)n1"
  T/C: "110 % of control"
- molecule: "COc1cc(C(=O)O)nc(SC)n1"
  T/C: "115 % of control"

Lab note: each molecule below needs its T/C filled in.
1. Cc1cc(Nc2ccccc2Br)nc(N)n1
2. CSc1nc(S(C)(=O)=O)ncc1C
3. CCC(C)Cn1cnc2c(=S)nc(N)[nH]c21 (stereo unspecified)
4. NC1(C(=O)O)CCCC1
5. Nc1nc(Nc2ccccc2Cl)cc(=O)[nH]1
6. Cc1cnc(SCc2ccc(Cl)cc2)[nH]c1=O
7. CCCCNCC(C)C(=O)OC (stereo unspecified)

1. 65 % of control
2. 86 % of control
3. 2 % of control
4. 96 % of control
5. 119 % of control
6. 74 % of control
7. 92 % of control

###

System: BDF1 mice, Adenocarcinoma 755 s.c., tumor weight T/C
Assay: NCI In Vivo Anticancer Drug Screen. Data for tumor model Adenocarcinoma 755 (subcutaneous) in B6D2F1 (BDF1) mice
Conditions: endpoint: mean tumor weight; dose: 0.5 mg/kg/injection; schedule: Q01DX011 (ip); vehicle: saline; higher = larger tumour
Field: T/C. Provide a value for each of the compounds that follow.

Use these answered entries as a reference point.
- compound: "COc1cc2c(c(OC)c1OC)-c1ccc(N)c(=O)cc1[C@@H](NC(C)=O)CC2"
  measured: "98 % of control"
- compound: "COC(=O)C1C2CC3c4[nH]c5cc(OC)ccc5c4CCN3CC2CC(OC(=O)c2cc(OC)c(OC)c(OC)c2)C1OC (centres undefined)"
  measured: "109 % of control"
- compound: "COc1ccc2c3c([nH]c2c1)[C@H]1C[C@H]2[C@H](C[C@@H](O)[C@H](OC)[C@H]2CO)CN1CC3"
  measured: "91 % of control"

Let us examine a further case.
For the compound shown here, CO[C@H](C(=O)[C@@H](O)[C@@H](C)O)[C@@H]1Cc2cc3cc(OC4CC(OC5CC(O)C(O)C(C)O5)C(O)C(C)O4)c(C)c(O)c3c(O)c2C(=O)[C@H]1OC1CC(OC2CC(OC3CC(C)(O)C(O)C(C)O3)C(O)C(C)O2)C(O)C(C)O1 (some centres undefined) , give the reported T/C.
57 % of control

###

System: BDF1 mice, Adenocarcinoma 755 s.c., tumor weight T/C
Experiment: NCI In Vivo Anticancer Drug Screen. Data for tumor model Adenocarcinoma 755 (subcutaneous) in B6D2F1 (BDF1) mice
Conditions: endpoint: mean tumor weight; dose: 6.0 mg/kg/injection; schedule: Q01DX011 (ip); vehicle: methylcellulose (MC); higher = larger tumour
Kindly state T/C for each of the entries shown.

- compound: "S=c1nc[nH]c2c1ncn2C1CCCC1"
  tested target: "BDF1 mice, Adenocarcinoma 755 s.c., tumor weight T/C"
  T/C: "50 % of control"
- compound: "CC(C)N(C(C)C)C(C)CCNc1c2ccccc2nc2cc(Cl)ccc12 (centres undefined)"
  tested target: "BDF1 mice, Adenocarcinoma 755 s.c., tumor weight T/C"
  T/C: "79 % of control"
- compound: "CSc1ncc(Br)c(Sc2nc(N)nc3nc[nH]c23)n1"
  tested target: "BDF1 mice, Adenocarcinoma 755 s.c., tumor weight T/C"
  T/C: "14 % of control"

Now for another entry.
Under BDF1 mice, Adenocarcinoma 755 s.c., tumor weight T/C: T/C value of `S=P(N1CC1)(N1CC1)N1CC1` ?
6 % of control

###

For each of the compounds below, state its T/C.
Test system: BDF1 mice, Adenocarcinoma 755 s.c., tumor weight T/C
Experiment: NCI In Vivo Anticancer Drug Screen. Data for tumor model Adenocarcinoma 755 (subcutaneous) in B6D2F1 (BDF1) mice
Conditions: endpoint: mean tumor weight; dose: 31.0 mg/kg/injection; schedule: Q01DX011 (ip); vehicle: carboxymethylcellulose (CMC); higher = larger tumour

Some compounds with recorded T/C:
- structure smiles string: "CCCCN(C)N=Nc1ccc(CCC(=O)NN)cc1"
  T/C: "19 % of control"
- structure smiles string: "Oc1ccc2ccccc2c1N=Nc1ccc(F)cc1"
  T/C: "37 % of control"
- structure smiles string: "NC(=O)c1n[nH]nc1N=Nc1c(O)ccc2ccccc12"
  T/C: "120 % of control"
- structure smiles string: "S=c1nc[nH]c2c1ncn2C1CC1"
  T/C: "86 % of control"
- structure smiles string: "CCCCN(C)N=Nc1ccc(S(N)(=O)=O)cc1"
  T/C: "33 % of control"

Below: the item to evaluate.
Consider the compound shown here: `CCOC(=O)c1ccc(N=NN(C)C)cc1` What is its recorded T/C?
113 % of control

###

System: BDF1 mice, Adenocarcinoma 755 s.c., tumor weight T/C
Experiment: NCI In Vivo Anticancer Drug Screen. Data for tumor model Adenocarcinoma 755 (subcutaneous) in B6D2F1 (BDF1) mice
Conditions: endpoint: mean tumor weight; dose: 3.0 mg/kg/injection; schedule: Q01DX011 (ip); vehicle: methylcellulose (MC); higher = larger tumour
Provide the reported T/C of each item.

- compound: "CN[C@H]1CCc2cc(OC)c(OC)c(OC)c2-c2ccc(OC)c(=O)cc21"
  measured: "56 % of control"
- compound: "S=c1nc[nH]c2c1ncn2C1CCCC1"
  measured: "69 % of control"

For each of the compounds below, state T/C.
1. CCc1nc(N)nc(N)c1-c1ccc(Cl)cc1
2. Nc1nc(=S)c2ncn(C3OC(CO)C(O)C3O)c2[nH]1 (stereo not drawn)
3. CC(C)N(C(C)C)C(C)CCNc1c2ccccc2nc2cc(Cl)ccc12 (stereo not drawn)
4. O=C(CC[n+]1ccccc1)N1CCN(C(=O)CC[n+]2ccccc2)CC1
5. COC(=O)c1[nH]c(=O)[nH]c(=O)c1F
6. CC(C)Sc1nc(N)nc2c1ncn2C1OC(CO)C(O)C1O (stereo not drawn)

1: 52 % of control; 2: 1 % of control; 3: 64 % of control; 4: 68 % of control; 5: 72 % of control; 6: 36 % of control

###

Tested on: BDF1 mice, Adenocarcinoma 755 s.c., tumor weight T/C
Assay: NCI In Vivo Anticancer Drug Screen. Data for tumor model Adenocarcinoma 755 (subcutaneous) in B6D2F1 (BDF1) mice
Conditions: endpoint: mean tumor weight; dose: 1.5 mg/kg/injection; schedule: Q01DX011 (ip); vehicle: methylcellulose (MC); higher = larger tumour
experimental endpoint: T/C

Illustrative cases are given below, each with its answer.
- compound: "CCCNc1ncnc2c1cnn2C1CCCO1 (stereo unspecified)"
  T/C: "75 % of control"
- compound: "Nc1ncnc2c1cnn2CCCl"
  T/C: "79 % of control"

Quick request: T/C for each listed item, please.
1. Nc1nc(SCc2cccc(Br)c2)c2ncn(C3OC(CO)C(O)C3O)c2n1 (stereo unspecified)
2. CC(C)CCn1cnc2c(=S)nc(N)[nH]c21
3. Nc1nc(=S)c2ncn(C3OC(CO)C(O)C3O)c2[nH]1 (stereo unspecified)
4. Nc1nc(SCc2cccnc2)c2ncn(C3OC(CO)C(O)C3O)c2n1 (stereo unspecified)

1. 84 % of control
2. 48 % of control
3. 2 % of control
4. 92 % of control

###

Test system: BDF1 mice, Adenocarcinoma 755 s.c., tumor weight T/C
Experiment: NCI In Vivo Anticancer Drug Screen. Data for tumor model Adenocarcinoma 755 (subcutaneous) in B6D2F1 (BDF1) mice
Conditions: endpoint: mean tumor weight; dose: 0.25 mg/kg/injection; schedule: Q01DX011 (ip); vehicle: carboxymethylcellulose (CMC); higher = larger tumour
experimental endpoint: T/C

As a guide, the following entries are already answered.
- structure smiles string: "CCOC1=C(N2CC2)C(=O)C(OCC)=C(N2CC2)C1=O"
  tested target: "BDF1 mice, Adenocarcinoma 755 s.c., tumor weight T/C"
  T/C: "55 % of control"
- structure smiles string: "O=P(N1CCCC1)(N1CC1)N1CC1"
  tested target: "BDF1 mice, Adenocarcinoma 755 s.c., tumor weight T/C"
  T/C: "110 % of control"
- structure smiles string: "O=[As]O"
  tested target: "BDF1 mice, Adenocarcinoma 755 s.c., tumor weight T/C"
  T/C: "86 % of control"

What value of measured T/C is listed for `CCCCSc1ncnc2nc[nH]c12` ?
119 % of control
